Assay: NCI Yeast Anticancer Drug Screen. Data for the rad50 strain (AID 155);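 note: 0% = growth of vehicle-only cultures of the same strain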
Conditions: S. cerevisiae rad50 strain growth inhibition; at 50.0 µM; hits give high values
The panel holds about 79,000 compounds, 15% with a hit somewhere; the sample as a whole holds those more often.
ENDPOINT LABEL: growth inhibition (%)
Give the value in % but do not write % after it.

Note to self: growth inhibition recorded for N#CC(Cc1ccccc1)C(=O)O (stereo unspecified) was 2.05

The recorded growth inhibition for entry Cc1ccc(NC(=O)C2C(=O)N(c3ccc(C)cc3)C(=O)/C2=N\NC(N)=S)cc1 (stereo unspecified) equals -29.7

// growth inhibition lookup, molecule = O=c1[nH]cc(Cl)cc1Cl , result: 0.05

get_value(item= COc1ccc(Cl)c2c(=O)c3ccc4c(c3[nH]c12)C(=O)c1ccccc1C4=O , readout=growth inhibition) returns 21.8

Notebook: Cc1ccc(NC(=O)CCCC(=O)C(C#N)c2nc3ccccc3s2)cc1C (stereo unspecified) , growth inhibition read as 10.9

GET /value?item= Cc1c(C(=O)CC(=O)C(=O)Nc2ccc(Cl)cc2)[n+](=O)c2ccccc2n1[O-] &field=growth inhibition returns 9.9

For this molecule ( O=C(CN1CCCCC1)c1ccc(CCc2ccc(C(=O)CN3CCCCC3)cc2)cc1 ), measured growth inhibition is 35

Record COC(=O)c1cc2cc3ccccc3cc2cc1C(=O)OC , field growth inhibition: 1.7

// CC(C)(C)CI : growth inhibition value = 15.6

Measured growth inhibition, CC/C(=N\NC(=O)c1ccncc1)c1ccc(Cl)cc1 : 1.1

Value of growth inhibition reported for the molecule Cc1ccc(S(=O)(=O)NC(=O)C2S(=O)(=O)OCCOS2(=O)=O)cc1 is -2.75
